Let's look at some compounds and their measured inhibition.
- test system: Proteasome subunit beta type-8 (Homo sapiens) (UniProt P28062)
- assay procedure: Inhibition of human 20S immunoproteasome beta-5 at 50 uM using Suc-LLVY-AMC as substrate incubated for 15 mins measured for 45 mins by fluorescence assay relative to control

For orientation, consider the following solved cases.
{"columns": ["smiles notation", "test system", "inhibition"],
 "data": [
  ["C[C@H](NC(=O)Cc1cccc(Oc2ccccc2)c1)C(=O)N[C@@H](C[C@]1(O)C(=O)Nc2ccccc21)C(=O)NCc1ccccc1", "Proteasome subunit beta type-8 (Homo sapiens) (UniProt P28062)", "> 85%"],
  ["CC(C)(C)OC(=O)NCCCC[C@H](NC(=O)[C@H](Cc1ccc(OCc2ccccc2)cc1)NC(=O)OC(C)(C)C)C(=O)N[C@@H](C[C@]1(O)C(=O)Nc2ccccc21)C(=O)NCc1ccccc1", "Proteasome subunit beta type-8 (Homo sapiens) (UniProt P28062)", "> 85%"],
  ["COC(=O)CCNC(=O)[C@H](C[C@]1(O)C(=O)Nc2ccccc21)NC(=O)[C@H](C)NC(=O)[C@H](Cc1ccc(OCc2ccccc2)cc1)NC(=O)OC(C)(C)C", "Proteasome subunit beta type-8 (Homo sapiens) (UniProt P28062)", "31%"],
  ["C[C@H](O)[C@@H](NC(=O)OCc1ccccc1)C(=O)N[C@@H](C[C@]1(O)C(=O)Nc2ccccc21)C(=O)NCc1ccccc1", "Proteasome subunit beta type-8 (Homo sapiens) (UniProt P28062)", "> 85%"],
  ["C[C@@H](O)[C@@H](NC(=O)c1ccc(OCc2ccccc2)cc1)C(=O)N[C@@H](C[C@]1(O)C(=O)Nc2ccccc21)C(=O)NCc1ccccc1", "Proteasome subunit beta type-8 (Homo sapiens) (UniProt P28062)", "> 85%"]
]}

Now for another entry.
Could you tell me which inhibition is on file for C[C@H](NC(=O)[C@H](Cc1ccc(OCc2ccccc2)cc1)NC(=O)OC(C)(C)C)C(=O)N[C@@H](C[C@@]1(O)C(=O)N(C)c2ccccc21)C(=O)NCc1ccccc1 ?
> 85%

###

- test system: Proteasome subunit beta type-9 (Homo sapiens, UniProt P28065)
- Sequence (P28065 whole entry): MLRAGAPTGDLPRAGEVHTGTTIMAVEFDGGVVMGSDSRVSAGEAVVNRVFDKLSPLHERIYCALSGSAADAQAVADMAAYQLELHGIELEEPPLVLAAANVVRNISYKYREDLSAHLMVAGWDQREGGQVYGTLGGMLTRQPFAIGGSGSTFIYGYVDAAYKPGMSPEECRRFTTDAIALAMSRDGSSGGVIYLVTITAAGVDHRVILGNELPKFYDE
- assay procedure: Inhibition of human 20S immunoproteasome beta-1 using Ac-PAL-AMC as substrate incubated for 15 mins measured for 45 mins by fluorescence assay
measure: IC50 (µM)

Known results for compounds:
{"columns": ["smiles notation", "unit symbol", "IC50"],
 "data": [
  ["C[C@H](NC(=O)[C@H](Cc1ccc(OCc2ccccc2)cc1)NC(=O)OC(C)(C)C)C(=O)N[C@@H](C[C@]1(O)C(=O)Nc2ccccc21)C(=O)NC(c1ccccc1)c1ccccc1", "µM", 4],
  ["CC(C)(C)OC(=O)N[C@@H](Cc1ccc(OCc2ccccc2)cc1)C(=O)NCC(=O)N[C@@H](C[C@]1(O)C(=O)Nc2ccccc21)C(=O)NCc1ccccc1", "µM", 12.6]
]}

1: C[C@H](NC(=O)[C@H](Cc1ccc(OCc2ccccc2)cc1)NC(=O)OC(C)(C)C)C(=O)N[C@@H](C[C@]1(O)C(=O)Nc2ccccc21)C(=O)NCCC1CCCCC1
2: C[C@H](NC(=O)[C@H](Cc1ccc(OCc2ccccc2)cc1)NC(=O)OC(C)(C)C)C(=O)N[C@@H](C[C@@]1(O)C(=O)Nc2ccccc21)C(=O)NCc1ccccc1
3: CC(C)(C)OC(=O)NCCCC[C@H](NC(=O)[C@H](Cc1ccc(OCc2ccccc2)cc1)NC(=O)OC(C)(C)C)C(=O)N[C@@H](C[C@]1(O)C(=O)Nc2ccccc21)C(=O)NCc1ccccc1
Put the compounds in ascending order of IC50. Order the labels as requested and list them.
1, 2, 3
(1: 3.5 µM, 2: 10.6 µM, 3: 59 µM)

###

- test system: Proteasome Macropain subunit MB1 (Homo sapiens)
- Sequence (P28074 whole entry): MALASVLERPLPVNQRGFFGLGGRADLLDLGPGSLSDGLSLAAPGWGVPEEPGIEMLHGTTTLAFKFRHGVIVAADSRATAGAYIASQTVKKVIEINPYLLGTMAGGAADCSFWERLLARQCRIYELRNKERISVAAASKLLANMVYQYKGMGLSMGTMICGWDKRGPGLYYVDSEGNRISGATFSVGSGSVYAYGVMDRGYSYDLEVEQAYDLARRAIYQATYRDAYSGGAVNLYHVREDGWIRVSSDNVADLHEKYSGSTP
- assay procedure: Inhibition of human 20S constitutive proteasome beta-5 using Suc-LLVY-AMC as substrate incubated for 15 mins measured for 45 mins by fluorescence assay
pIC50: −log10 of the molar value.
measure: pIC50

Worked examples, 3 compounds total:
{"columns": ["smiles notation", "pIC50"],
 "data": [
  ["C[C@H](NC(=O)[C@H](Cc1ccc(OCc2ccccc2)cc1)NC(=O)OC(C)(C)C)C(=O)N[C@@H](C[C@]1(O)C(=O)Nc2ccccc21)C(=O)NCc1cccc2ccccc12", 5.85],
  ["NCCCC[C@H](NC(=O)[C@@H](N)Cc1ccc(OCc2ccccc2)cc1)C(=O)N[C@@H](C[C@]1(O)C(=O)Nc2ccccc21)C(=O)NCc1ccccc1", 5.54],
  ["C[C@H](NC(=O)[C@H](Cc1ccc(OCc2ccccc2)cc1)NC(=O)OC(C)(C)C)C(=O)N[C@@H](C[C@]1(O)C(=O)N(C)c2ccccc21)C(=O)NCc1ccccc1", 5.29]
]}

A: C[C@H](NC(=O)[C@H](Cc1ccc(OCc2ccccc2)cc1)NC(=O)OC(C)(C)C)C(=O)N[C@@H](C[C@]1(O)C(=O)Nc2ccccc21)C(=O)NCCc1ccccc1
B: CC(C)(C)OC(=O)NCCCC[C@H](NC(=O)[C@H](Cc1ccc(OCc2ccccc2)cc1)NC(=O)OC(C)(C)C)C(=O)N[C@@H](C[C@]1(O)C(=O)Nc2ccccc21)C(=O)NCc1ccccc1
I would appreciate it if you could say which entry, A or B , has the lower pIC50 value. When you have decided, please share the label of that item.
B
(B: 4.66, A: 5.22)

###

- Tested on: Fibroblast
- assay procedure: Cytotoxicity against human fibroblasts assessed as reduction in cell viability at 25 uM after 48 hrs by Hoechst 33342 staining based HCS assay
measure: Activity

{"columns": ["smiles notation", "experimental result"],
 "data": [
  ["CC(C)(C)OC(=O)N[C@@H](Cc1ccc(OCc2ccccc2)cc1)C(=O)N[C@@H](CC(N)=O)C(=O)N[C@@H](C[C@]1(O)C(=O)Nc2ccccc21)C(=O)NCc1ccccc1", "Non-Toxic"],
  ["C[C@H](O)[C@@H](NC(=O)[C@H](Cc1ccc(OCc2ccccc2)cc1)NC(=O)OC(C)(C)C)C(=O)N[C@@H](C[C@]1(O)C(=O)Nc2ccccc21)C(=O)NCc1ccccc1", "Non-Toxic"],
  ["C[C@H](NC(=O)c1ccc(OCc2ccccc2)cc1)C(=O)N[C@@H](C[C@]1(O)C(=O)Nc2ccccc21)C(=O)NCc1ccccc1", "Non-Toxic"],
  ["C[C@@H](O)[C@@H](NC(=O)c1ccc(OCc2ccccc2)cc1)C(=O)N[C@@H](C[C@]1(O)C(=O)Nc2ccccc21)C(=O)NCc1ccccc1", "Non-Toxic"]
]}

Query compound follows.
Can you share its Activity? I mean this compound: C[C@H](NC(=O)[C@H](Cc1ccc(OCc2ccccc2)cc1)NC(=O)OC(C)(C)C)C(=O)N[C@@H](C[C@]1(O)C(=O)Nc2ccccc21)C(=O)NCc1ccccc1
Non-Toxic

###

- test system: Proteasome subunit beta type-8 (Homo sapiens)
- Sequence (P28062 whole entry): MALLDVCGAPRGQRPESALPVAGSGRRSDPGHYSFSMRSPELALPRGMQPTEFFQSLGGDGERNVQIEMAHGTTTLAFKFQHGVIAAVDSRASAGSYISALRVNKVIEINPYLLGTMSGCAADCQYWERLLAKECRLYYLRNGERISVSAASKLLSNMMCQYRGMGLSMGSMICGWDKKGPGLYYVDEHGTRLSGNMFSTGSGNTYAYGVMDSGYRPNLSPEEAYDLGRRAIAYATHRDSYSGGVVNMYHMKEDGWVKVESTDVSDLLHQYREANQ
- assay procedure: Inhibition of human 20S immunoproteasome beta-5 using Suc-LLVY-AMC as substrate incubated for 15 mins measured for 45 mins by fluorescence assay
measure: IC50 (µM)

Some compounds with known IC50 results, for comparison:
{"columns": ["smiles notation", "test system", "unit symbol", "IC50"],
 "data": [
  ["CC(C)(C)OC(=O)NCCCC[C@H](NC(=O)[C@H](Cc1ccc(OCc2ccccc2)cc1)NC(=O)OC(C)(C)C)C(=O)N[C@@H](C[C@]1(O)C(=O)Nc2ccccc21)C(=O)NCc1ccccc1", "Proteasome subunit beta type-8 (Homo sapiens)", "µM", 25.1],
  ["C[C@H](NC(=O)[C@H](Cc1ccc(OCc2ccccc2)cc1)NC(=O)OC(C)(C)C)C(=O)N[C@@H](C[C@]1(O)C(=O)Nc2ccccc21)C(=O)NC(c1ccccc1)c1ccccc1", "Proteasome subunit beta type-8 (Homo sapiens)", "µM", 2.7],
  ["C[C@H](NC(=O)OCc1ccccc1)C(=O)N[C@@H](C[C@]1(O)C(=O)Nc2ccccc21)C(=O)NCc1ccccc1", "Proteasome subunit beta type-8 (Homo sapiens)", "µM", 3.96]
]}

a: C[C@H](NC(=O)[C@H](Cc1ccc(OCc2ccccc2)cc1)NC(=O)OC(C)(C)C)C(=O)N[C@@H](C[C@]1(O)C(=O)N(C)c2ccccc21)C(=O)NCc1ccccc1
b: CC(C)(C)OC(=O)N[C@@H](Cc1ccc(OCc2ccccc2)cc1)C(=O)N[C@@H](CC(N)=O)C(=O)N[C@@H](C[C@]1(O)C(=O)Nc2ccccc21)C(=O)NCc1ccccc1
For the pair a and b , which entry has the numerically smaller recorded IC50? Use the label to indicate which entry you chose.
b
(b: 1.6 µM, a: 3.93 µM)

###

- test system: Proteasome subunit beta type-10 (Homo sapiens) (UniProt P40306)
- Sequence (P40306 whole entry): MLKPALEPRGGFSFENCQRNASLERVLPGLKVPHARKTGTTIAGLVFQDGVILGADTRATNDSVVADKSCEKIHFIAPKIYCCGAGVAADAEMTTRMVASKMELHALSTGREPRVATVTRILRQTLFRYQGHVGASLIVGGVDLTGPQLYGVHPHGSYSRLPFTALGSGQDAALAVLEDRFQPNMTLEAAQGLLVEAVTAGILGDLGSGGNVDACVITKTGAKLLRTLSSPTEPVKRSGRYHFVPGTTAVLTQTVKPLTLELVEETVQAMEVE
- assay procedure: Inhibition of human 20S immunoproteasome beta-2 at 50 uM using BocLRR-AMC as substrate incubated for 15 mins measured for 45 mins by fluorescence assay relative to control
Each entry below lists one item and its recorded inhibition value.

{"columns": ["smiles notation", "inhibition"],
 "data": [
  ["CC(C)(C)OC(=O)N[C@@H](Cc1ccc(OCc2ccccc2)cc1)C(=O)NCC(=O)N[C@@H](C[C@]1(O)C(=O)Nc2ccccc21)C(=O)NCc1ccccc1", "> 85%"]
]}

Which inhibition is reported for this compound? C[C@H](NC(=O)[C@H](Cc1ccc(OCc2ccccc2)cc1)NC(=O)OC(C)(C)C)C(=O)N[C@@H](C[C@@]1(O)C(=O)N(C)c2ccccc21)C(=O)NCc1ccccc1
18%

Attribution: ChEMBL document CHEMBL4251654
